Reference source for all entries: the kinase profiling compilation of Christmann-Franck et al. (2016)

Target: BRSK2 (human) (UniProt Q8IWQ3)
Sequence (Q8IWQ3 whole entry, looked up): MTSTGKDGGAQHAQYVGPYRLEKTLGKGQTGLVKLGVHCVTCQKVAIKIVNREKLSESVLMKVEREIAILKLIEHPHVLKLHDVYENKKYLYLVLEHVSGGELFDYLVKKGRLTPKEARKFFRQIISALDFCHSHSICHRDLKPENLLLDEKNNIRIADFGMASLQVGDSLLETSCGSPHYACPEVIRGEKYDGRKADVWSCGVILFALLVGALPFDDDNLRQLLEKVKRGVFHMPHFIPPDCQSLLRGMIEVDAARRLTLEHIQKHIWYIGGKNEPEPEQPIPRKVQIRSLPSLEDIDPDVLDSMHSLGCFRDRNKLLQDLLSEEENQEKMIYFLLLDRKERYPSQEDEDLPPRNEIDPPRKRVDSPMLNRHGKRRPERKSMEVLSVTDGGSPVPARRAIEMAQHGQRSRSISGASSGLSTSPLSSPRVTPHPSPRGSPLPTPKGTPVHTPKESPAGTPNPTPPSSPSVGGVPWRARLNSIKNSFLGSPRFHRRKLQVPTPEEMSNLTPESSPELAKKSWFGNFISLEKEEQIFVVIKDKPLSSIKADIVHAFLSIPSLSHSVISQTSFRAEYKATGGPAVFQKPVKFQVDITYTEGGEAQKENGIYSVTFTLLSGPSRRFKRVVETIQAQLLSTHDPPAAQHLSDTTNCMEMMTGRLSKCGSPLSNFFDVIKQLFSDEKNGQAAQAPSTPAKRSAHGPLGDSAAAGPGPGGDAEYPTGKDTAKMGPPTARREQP
Assay: radiometric filter-binding kinase assay
Conditions: compound 0.1 µM
value kind: residual activity (%)

- compound: "COc1ccc(-n2ncc3cnc(Nc4cc(OC)c(OC)c(OCCCN5CCN(C)CC5)c4)nc32)cc1"
  reading unit: "%"
  measured number: 84
- compound: "CCc1cncnc1N1CCN(Cc2nc3cc(C(F)(F)F)ccc3[nH]2)CC1"
  reading unit: "%"
  measured number: 88
- compound: "C/C(=C1/C(=O)Nc2ccc(NC(N)=O)cc21)c1ccc[nH]1"
  reading unit: "%"
  measured number: 12
- compound: "O=C(NCCCNc1nc(Nc2cccc(CN3CCOCC3)c2)ncc1C1CC1)C1CCC1"
  reading unit: "%"
  measured number: 88
- compound: "CN(C)C/C=C/C(=O)Nc1cccc(C(=O)Nc2ccc(Nc3nccc(-c4cccnc4)n3)cc2)c1"
  reading unit: "%"
  measured number: 82
- compound: "COc1ccc2c(c1)c1c3c(c4c5ccccc5n(C)c4c1n2CC(O)CN(C)C)C(=O)NC3=O (centres undefined)"
  reading unit: "%"
  measured number: 72
- compound: "COc1ccc(N(C(=O)Nc2c(C)cccc2C)c2cc(Nc3ccc(N4CCN(C)CC4)cc3)ncn2)c(OC)c1"
  reading unit: "%"
  measured number: 97
- compound: "COc1cc(O)c2c(c1)/C=C/C[C@H](O)[C@H](O)C(=O)/C=C\\C[C@H](C)OC2=O"
  reading unit: "%"
  measured number: 84
- compound: "O=C(Nc1nc2cc(C(F)(F)F)cc(NC3CC3)n2n1)c1cccnc1"
  reading unit: "%"
  measured number: 116

====

Molecular target: RIPK2 (human) (UniProt O43353)
Sequence (O43353 whole entry, looked up): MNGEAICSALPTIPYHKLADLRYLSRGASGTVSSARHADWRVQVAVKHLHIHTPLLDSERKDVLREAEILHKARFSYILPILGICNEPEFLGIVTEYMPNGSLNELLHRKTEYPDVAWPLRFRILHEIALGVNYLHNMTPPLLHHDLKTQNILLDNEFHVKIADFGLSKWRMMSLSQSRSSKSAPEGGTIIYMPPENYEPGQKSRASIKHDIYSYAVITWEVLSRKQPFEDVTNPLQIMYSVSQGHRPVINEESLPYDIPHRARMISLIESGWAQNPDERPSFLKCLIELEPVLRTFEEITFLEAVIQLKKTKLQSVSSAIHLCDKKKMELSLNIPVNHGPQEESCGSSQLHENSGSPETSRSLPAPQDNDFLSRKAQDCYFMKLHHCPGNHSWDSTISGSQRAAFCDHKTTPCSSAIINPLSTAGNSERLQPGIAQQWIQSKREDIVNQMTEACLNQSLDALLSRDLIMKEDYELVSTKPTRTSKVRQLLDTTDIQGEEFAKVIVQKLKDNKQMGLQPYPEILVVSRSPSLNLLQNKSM
Test: radiometric filter-binding kinase assay
Details: compound 0.1 µM

- molecule: "Cc1cccc(-c2nn(C(=S)Nc3ccccc3)cc2-c2ccnc3ccccc23)n1"
  residual activity, %: 26
- molecule: "c1ccc2c(-c3cnn4cc(-c5ccc(N6CCNCC6)cc5)cnc34)ccnc2c1"
  residual activity, %: 52
- molecule: "Cc1cc(NC(=O)c2cccc(NC(=O)/C=C/CN(C)C)c2)ccc1Nc1nccc(-c2cccnc2)n1"
  residual activity, %: 82
- molecule: "NC(=O)c1cc(-c2ccnc(NC3CCCCC3)c2)nc(N2CCNCC2)c1"
  residual activity, %: 96
- molecule: "COc1cc(O)c2c(c1)[C@H]1OC1C[C@H](O)[C@H](O)C(=O)/C=C\\C[C@H](C)OC2=O (some centres undefined)"
  residual activity, %: 102
- molecule: "O=C(Nc1nc2cc(C(F)(F)F)cc(NC3CC3)n2n1)c1cccnc1"
  residual activity, %: 87
- molecule: "CNc1nc(-c2ccc3c(N)n[nH]c3c2)cc(N2C[C@@H](C(=O)NC3CCCCC3)CC[C@H]2C)n1"
  residual activity, %: 114
- molecule: "CCn1c(-c2nonc2N)nc2cncc(CNC3CCNCC3)c21"
  residual activity, %: 86
- molecule: "CC1=C(CO)C(=O)O[C@@H]([C@@H](C)[C@H]2CC[C@H]3[C@@H]4C[C@H]5O[C@]56[C@@H](O)C=CC(=O)[C@]6(C)C4CC[C@]23C)C1 (some centres undefined)"
  residual activity, %: 95
- molecule: "COc1ccc(-n2ncc3cnc(Nc4cc(OC)c(OC)c(OCCCN5CCN(C)CC5)c4)nc32)cc1"
  residual activity, %: 28
- molecule: "O=C(NCCCNc1nc(Nc2cccc(CN3CCOCC3)c2)ncc1C1CC1)C1CCC1"
  residual activity, %: 109
- molecule: "NC(=O)c1cc2c(-c3cccc(-c4ccccc4)c3)cnc(N)c2s1"
  residual activity, %: 86
- molecule: "COc1ccc(N(C(=O)Nc2c(C)cccc2C)c2cc(Nc3ccc(N4CCN(C)CC4)cc3)ncn2)c(OC)c1"
  residual activity, %: 37
- molecule: "CCCCCc1ccc(/C=C/[C@H](O)[C@@H](CO)NC)cc1"
  residual activity, %: 119
- molecule: "COc1cc(O)c2c(c1)/C=C/C[C@H](O)[C@H](O)C(=O)/C=C\\C[C@H](C)OC2=O"
  residual activity, %: 103
- molecule: "Cc1ccc(-c2ccc3c(ccc4sc5c(c43)NC[C@@H](C)NC5=O)n2)cn1"
  residual activity, %: 93
- molecule: "C=CC(=O)N1CCC[C@@H](n2nc(-c3ccc(Oc4ccccc4)cc3)c3c(N)ncnc32)C1"
  residual activity, %: 21
- molecule: "Cc1ccc(Sc2cnc(Nc3cccc(Br)n3)s2)cc1C(=O)N1CCN(C(=O)CN)CC1"
  residual activity, %: 20
- molecule: "CN1CCN(CCOc2cc(OC3CCOCC3)c3c(Nc4c(Cl)ccc5c4OCO5)ncnc3c2)CC1"
  residual activity, %: 9
